Data provenance: ChEMBL document CHEMBL5223104

procedureDetails: Apparent clearance during terminal phase in Sprague-Dawley rat at 10 mg/kg, iv
Format: ADME, organism-based
testSettings: in vivo
measurementLabel: CLz/F
// unit must come after the numeric part

Prompt line: Returns the measured CLz/F for the input compound. Input: `CN(C)/N=N/c1c(C(N)=O)nnn1Cc1c(F)cccc1F`
Response line: 54.2 mL/min/kg

---

# V1/2 values compiled below
measuredOn: Sodium channel protein type 1 subunit alpha (Homo sapiens) (UniProt P35498)
procedureDetails: Modulator activity at human Nav1.1 expressed in human Flp-In-T-REx-293 cells assessed as half inactivation potential at 100 uM by whole cell patch clamp electrophysiology assay
Assay type: cell-based
The reply should be a number in mV, with the unit left off.

Prompt line: Item: `CN(C)/N=N/c1c(C(=O)NC2CC2)nnn1Cc1c(F)cccc1F` Test system: Sodium channel protein type 1 subunit alpha (Homo sapiens) (UniProt P35498) Read-out: V1/2 Value: ?
Response line: -64.2

Prompt line: Item: `CN(C)/N=N/c1c(C(N)=O)nnn1Cc1c(F)cccc1F` Test system: Sodium channel protein type 1 subunit alpha (Homo sapiens) (UniProt P35498) Read-out: V1/2 Value: ?
Response line: -69.8

New cases:
Prompt line: Item: `CNC(=O)c1nnn(Cc2c(F)cccc2F)c1/N=N/N(C)C` Test system: Sodium channel protein type 1 subunit alpha (Homo sapiens) (UniProt P35498) Read-out: V1/2 Value: ?
Response line: -69.6

Prompt line: Item: `CN(C)/N=N/c1c(C(N)=O)nnn1Cc1ccccc1Cl` Test system: Sodium channel protein type 1 subunit alpha (Homo sapiens) (UniProt P35498) Read-out: V1/2 Value: ?
Response line: -62.9

Prompt line: Item: `CN(C)/N=N/c1c(C(=O)Nc2ccccc2)nnn1Cc1c(F)cccc1F` Test system: Sodium channel protein type 1 subunit alpha (Homo sapiens) (UniProt P35498) Read-out: V1/2 Value: ?
Response line: -73

Prompt line: Item: `COC(=O)CCCNC(=O)c1nnn(Cc2c(F)cccc2F)c1/N=N/N(C)C` Test system: Sodium channel protein type 1 subunit alpha (Homo sapiens) (UniProt P35498) Read-out: V1/2 Value: ?
Response line: -71.3

Prompt line: Item: `Cc1ccc(Cn2nnc(C(N)=O)c2/N=N/N(C)C)cc1` Test system: Sodium channel protein type 1 subunit alpha (Homo sapiens) (UniProt P35498) Read-out: V1/2 Value: ?
Response line: -66.2

Prompt line: Item: `CN(C)/N=N/c1c(C(N)=O)nnn1CCc1c(F)cccc1F` Test system: Sodium channel protein type 1 subunit alpha (Homo sapiens) (UniProt P35498) Read-out: V1/2 Value: ?
Response line: -61.5

Prompt line: Item: `CN(C)/N=N/c1c(C(N)=O)nnn1Cc1ccc(F)cc1` Test system: Sodium channel protein type 1 subunit alpha (Homo sapiens) (UniProt P35498) Read-out: V1/2 Value: ?
Response line: -62

Prompt line: Item: `CN(C)/N=N/c1c(C(N)=O)nnn1Cc1ccccc1` Test system: Sodium channel protein type 1 subunit alpha (Homo sapiens) (UniProt P35498) Read-out: V1/2 Value: ?
Response line: -64.2

Prompt line: Item: `CN(C)/N=N/c1c(C(N)=O)nnn1Cc1ccc(F)cc1F` Test system: Sodium channel protein type 1 subunit alpha (Homo sapiens) (UniProt P35498) Read-out: V1/2 Value: ?
Response line: -63.1

Prompt line: Item: `CN(C)/N=N/c1c(C(N)=O)nnn1-c1c(F)cccc1F` Test system: Sodium channel protein type 1 subunit alpha (Homo sapiens) (UniProt P35498) Read-out: V1/2 Value: ?
Response line: -64.3

Prompt line: Item: `NC(=O)c1cn(Cc2c(F)cccc2F)nn1` Test system: Sodium channel protein type 1 subunit alpha (Homo sapiens) (UniProt P35498) Read-out: V1/2 Value: ?
Response line: -66.7

Prompt line: Item: `CN(C)/N=N/c1c(C(N)=O)nnn1Cc1ccccc1F` Test system: Sodium channel protein type 1 subunit alpha (Homo sapiens) (UniProt P35498) Read-out: V1/2 Value: ?
Response line: -66.6

Prompt line: Item: `CN(C)/N=N/c1c(C(=O)NCc2ccccc2)nnn1Cc1c(F)cccc1F` Test system: Sodium channel protein type 1 subunit alpha (Homo sapiens) (UniProt P35498) Read-out: V1/2 Value: ?
Response line: -78.8
